- Tested on: VCaP cells
- TEST_SUMMARY: VCaP growth inhibition assay
- Format: cell-based
- EXPERIMENTAL_CONDITIONS: 30 pM R1881, 9 days, CTG
Hi there, I'd appreciate the recorded IC50 for every entry that follows.

[
  {
    "MOLECULE": "CC(=O)N1CCc2c(c(N3CCCc4cc(-c5cnn(C)c5)c(C(F)F)cc43)nn2C2CCN(C(=O)CN3CCN(c4ncc(C(=O)NC5C(C)(C)C(Oc6ccc(C#N)c(Cl)c6)C5(C)C)cn4)CC3)CC2)C1 (centres unmarked) [Compound 96]",
    "TGT": "VCaP cells",
    "IC50": "≤ 0.1 nM"
  },
  {
    "MOLECULE": "CC(=O)N1CCc2c(c(N3CCCc4ccccc43)nn2C2CCN(CC3CCN(c4ncc(C(=O)NC5C(C)(C)C(Oc6ccc(C#N)c(Cl)c6)C5(C)C)cn4)CC3)CC2)C1 (centres unmarked) [Compound 158]",
    "TGT": "VCaP cells",
    "IC50": "≤ 0.1 nM"
  },
  {
    "MOLECULE": "CC(=O)N1CCc2c(c(N3CCCc4cc(-c5cnn(C)c5)c(C(F)F)cc43)nn2CCN2CCN(c3ncc(C(=O)NC4C(C)(C)C(Oc5ccc(C#N)c(Cl)c5)C4(C)C)cn3)CC2)C1 (centres unmarked) [Compound 52]",
    "TGT": "VCaP cells",
    "IC50": "0.1 to 1 nM"
  },
  {
    "MOLECULE": "COc1cc(OC2C(C)(C)C(NC(=O)c3ccc(N4CCN(C5CCN(c6ccc(-c7cc8c(cn7)N(c7nn(C9CCOCC9)c9c7CN(C(C)=O)CC9)CCC8)cn6)CC5)CC4)cc3)C2(C)C)ccc1C#N (centres unmarked) [Compound 323]",
    "TGT": "VCaP cells",
    "IC50": "≤ 0.1 nM"
  }
]

Next, consider the following molecule.
Incoming: Identify measured IC50 associated with CC(=O)N1CCc2c(c(N3CCCc4ccc(C(F)F)cc43)nn2C2CC3(C2)CN(CC2CC4(C2)CN(c2ncc(C(=O)NC5C(C)(C)C(Oc6ccc(C#N)c(Cl)c6)C5(C)C)cn2)C4)C3)C1 (centres unmarked) [Compound 219]
Outgoing: 0.1 to 1 nM
